test: self-splicing fitness, log relative to wild type (ln ratio); higher = more splicing; Tetrahymena group I intron in knt gene, E. coli kanamycin selection, DiMSum; sequences stand for … in CUCUCU…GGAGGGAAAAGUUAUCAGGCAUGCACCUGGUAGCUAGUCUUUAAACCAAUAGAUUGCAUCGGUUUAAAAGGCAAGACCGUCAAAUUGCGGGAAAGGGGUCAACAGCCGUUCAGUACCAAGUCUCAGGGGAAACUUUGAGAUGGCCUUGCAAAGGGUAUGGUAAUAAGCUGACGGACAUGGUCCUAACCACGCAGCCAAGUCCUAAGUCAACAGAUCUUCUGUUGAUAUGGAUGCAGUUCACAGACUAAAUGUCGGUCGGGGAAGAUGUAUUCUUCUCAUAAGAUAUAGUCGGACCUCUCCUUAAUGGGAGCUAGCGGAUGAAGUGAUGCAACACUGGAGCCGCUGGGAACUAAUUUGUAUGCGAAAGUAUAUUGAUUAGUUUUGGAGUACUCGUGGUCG; conditions: 37 °C;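 further: selection with 25 µg/mL kanamycin versus none on LB agar overnight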
# Lookup of reported self-splicing fitness (ln) keyed by entry
Respond with the number and no other words.

GUACAGCAAUAUUACGCUGA -1.33
AAUCAGCAAUAUUACGAGGC -2.47
CGUCAGCAAUAUUACGCAUC -2.89
UCCGAGCAAUAUUACGGACU -2.02
CCAUAGCAAUAUUACGAGAG -2.56
UUUUAGCAAUAUUACGUCCG 0.963
CUCAAGCAAUAUUACGAGAC -2.35
CCGCAGCAAUAUUACGAAUG -0.305
CUGUAGCAAUAUUACGUUGG -1.46
AUAAAGCAAUAUUACGACGU 0.786

Query: Look at this sequence and give its reported self-splicing fitness (ln). `GUAUAGCAAUAUUACGCUGG`
Result: -1.01

Query: Could you tell me which self-splicing fitness (ln) is on file for `AUACAGCAAUAUUACGUAUG` ?
Result: -2.52

Query: Form field: reported self-splicing fitness (ln) of `AUAGAGCAAUAUUACGGCAC`
Result: -0.686

Query: Request the reported self-splicing fitness (ln) associated with `CCUCAGCAAUAUUACGGAUC`
Result: -1.41

Query: Value lookup for self-splicing fitness (ln); key = `ACUUAGCAAUAUUACGAACG`
Result: -0.581

Query: Look up self-splicing fitness (ln) for this sequence: `ACCAAGCAAUAUUACGCCUA`
Result: -0.201

All values here come from the supplement of paper PMC7877785.
